Reported values of EC50 (IFNγ stimulation, NK92) for individual entries
# assay_system: T1, IL-18 receptor (IL-18Rαβ) on cells (UniProt Q13478 19-541; O95256 20-599, limits assumed)
# T1 sequence (looked up) 1: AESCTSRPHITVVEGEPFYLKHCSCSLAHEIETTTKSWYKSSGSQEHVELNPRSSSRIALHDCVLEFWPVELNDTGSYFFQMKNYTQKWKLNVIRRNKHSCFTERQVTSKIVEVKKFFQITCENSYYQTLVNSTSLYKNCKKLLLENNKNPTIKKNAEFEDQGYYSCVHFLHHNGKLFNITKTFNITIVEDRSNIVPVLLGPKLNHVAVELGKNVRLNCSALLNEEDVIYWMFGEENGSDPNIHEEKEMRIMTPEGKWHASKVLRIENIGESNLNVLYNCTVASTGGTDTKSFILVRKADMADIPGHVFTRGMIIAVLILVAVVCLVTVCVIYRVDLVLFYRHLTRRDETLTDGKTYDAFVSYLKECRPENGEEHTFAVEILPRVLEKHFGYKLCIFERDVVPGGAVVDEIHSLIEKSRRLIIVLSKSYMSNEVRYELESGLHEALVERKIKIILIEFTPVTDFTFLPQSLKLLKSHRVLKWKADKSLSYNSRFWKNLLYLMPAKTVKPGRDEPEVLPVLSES
# T1 sequence (looked up) 2: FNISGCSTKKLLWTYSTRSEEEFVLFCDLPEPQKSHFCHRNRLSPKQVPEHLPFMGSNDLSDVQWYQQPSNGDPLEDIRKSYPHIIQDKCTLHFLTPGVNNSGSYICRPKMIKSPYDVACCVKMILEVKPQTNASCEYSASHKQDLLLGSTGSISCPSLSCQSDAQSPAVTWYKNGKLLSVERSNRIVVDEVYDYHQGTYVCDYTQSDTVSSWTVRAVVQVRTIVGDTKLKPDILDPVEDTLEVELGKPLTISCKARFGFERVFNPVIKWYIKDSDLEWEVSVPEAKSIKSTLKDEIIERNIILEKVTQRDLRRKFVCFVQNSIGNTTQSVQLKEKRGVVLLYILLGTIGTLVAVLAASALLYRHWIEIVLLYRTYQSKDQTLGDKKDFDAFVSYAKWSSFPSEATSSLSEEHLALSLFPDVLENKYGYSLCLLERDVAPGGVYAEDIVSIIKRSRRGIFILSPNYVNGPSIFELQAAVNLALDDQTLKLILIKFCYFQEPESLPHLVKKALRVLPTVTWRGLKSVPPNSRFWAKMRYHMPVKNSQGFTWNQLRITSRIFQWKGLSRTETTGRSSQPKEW
# test_method_notes: cell-based or functional assay
Quick note: give the figure in nM, leave out the unit.

binder	EC50 (IFNγ stimulation, NK92) (nM)
SEQ ID NO 6 (ligand) YFGKLKSKLSIIRNLNDQVLFIDQGNRPLFEDMTDSDARDNAPRTIFIISMYADSQPRGMAVAISVKAEKISTLSAENKIISFKEMNPPDNIKDTKSCIIFFQRSVPGHDNKMQFESSSYEGYFLAAEKERDLFKLILKKEDELGDRSIMFTVQNED	1.37
SEQ ID NO 5 (ligand) YFGKLKSKLSIIRNLNDQVLFIDQGNRPLFEDMTDSDARDNAPRTIFIISMYADSQPRGMAVAISVKAEKISTLSAENKIISFKECNPPDNIKDTKSDIIFFQRSVPGHDNKMQFESSSYEGYFLAAEKERDLFKLILKKEDELGDRSIMFTVQNED	0.075

EC50 (IFNγ stimulation, NK92) in this record for C165 (ligand) YFGKLESKLSIIRNLNDQVLFIDQGNRPLFEDMTDSDARDNAPRTIFIISMYKDRQPRGMAVTISVKCEKISTLSAENKIISFKEMNPPDNIKDTKSDIIFFQRSVPGHDNKMQFESSSYEGYFLAAEKERDLFKLILKKEDELGDRSIMFTVQNED : 0.176

Attribution: patent US20250197467A1
